Reference source: the supplement of paper PMC6992640

Reported cell viability values for a set of compounds
Tested on: WHIM30 (cells of a triple-negative basal-like breast cancer xenograft)
Experiment Notes: cell viability (% of vehicle); higher = less cytotoxic
Condition Summary: 10 µM; 72 h
Enter a number only.

# Compound, Tgt, cell viability
data = [
    ("O=C(Nc1nc2cccc(-c3ccc(CN4CCS(=O)(=O)CC4)cc3)n2n1)C1CC1", "WHIM30", 147),
]

Given the compound CS(=O)(=O)O.Cc1ccc(NC(=O)c2ccc(CN3CCN(C)CC3)cc2)cc1Nc1nccc(-c2cccnc2)n1 [Imatinib Mesylate (STI571)] and test system WHIM30, the measured cell viability is 114

Tested on WHIM30, the item O=C(Nc1c(Cl)cncc1Cl)c1ccc(OC(F)F)c(OCC2CC2)c1 [Roflumilast] showed cell viability equal to 151

Given the compound COc1ccc(C[C@H](N)C(=O)N[C@@H]2[C@H](O)[C@H](n3cnc4c(N(C)C)ncnc43)O[C@@H]2CO)cc1.Cl.Cl [Puromycin dihydrochloride] and test system WHIM30, the measured cell viability is 33.3

Form field, cell viability with WHIM30, item Nc1ccc(S(=O)(=O)Nc2ncccn2)cc1 [Sulfadiazine] : 118

The value of cell viability recorded for CC(OC1OCCN(Cc2nc(=O)n(P(=O)(O)O)[nH]2)C1c1ccc(F)cc1)c1cc(C(F)(F)F)cc(C(F)(F)F)c1.CNCC(O)C(O)C(O)C(O)CO.CNCC(O)C(O)C(O)C(O)CO (stereo unspecified) [Fosaprepitant dimeglumine salt] when tested on WHIM30 reads 109

###

Test system: HCI01 (cells of a triple-negative basal-like breast cancer xenograft)
Experiment Notes: cell viability (% of vehicle); higher = less cytotoxic
Condition Summary: 10 µM; 72 h
Measure: cell viability
Answer with a number only.

# Compound, cell viability
measured = [
    ("Cl.O=C(O)C=Cc1ccc(Cn2ccnc2)cc1 [Ozagrel HCl]", 72.6),
]

Turning to the following compound.
Short answer on HCI01 for CC1CNCCCN1S(=O)(=O)c1cccc2cncc(F)c12.Cl.O.O (stereo not given) , cell viability: 100

###

System: WHIM2 (cells of a triple-negative basal-like breast cancer xenograft)
Experiment Notes: cell viability (% of vehicle); higher = less cytotoxic
Condition Summary: 10 µM; 72 h
Measure: cell viability

Check out these entries, answers already filled in.
# Compound, cell viability
records = [
    ("O=C1NC([O-])=NC1(c1ccccc1)c1ccccc1.[Na+] [Phenytoin sodium]", 105),
    ("CCOC(=O)C1=C(COCCN)NC(C)=C(C(=O)OC)C1c1ccccc1Cl.O=S(=O)(O)c1ccccc1 (stereo unspecified) [Amlodipine Besylate]", 37),
    ("CN1C2=CC(=O)C(=NNC(N)=O)C=C2CC1S(=O)(=O)[O-].[Na+] (stereo unspecified) [Carbazochrome sodium sulfonate (AC-17)]", 99.4),
    ("CO[C@H]1/C=C/O[C@@]2(C)Oc3c(C)c(O)c4c(O)c(c(/C=N/N5CCN(C6CCCC6)CC5)c(O)c4c3C2=O)NC(=O)/C(C)=C\\C=C\\[C@H](C)[C@H](O)[C@@H](C)[C@@H](O)[C@@H](C)[C@H](OC(C)=O)[C@@H]1C [Rifapentine]", 53.9),
    ("Cc1ncc([N+](=O)[O-])n1CC(C)O (stereo unspecified) [Secnidazole]", 92.4),
]

cell viability reading for COc1ccccc1N1CCN(CCCNc2cc(=O)n(C)c(=O)n2C)CC1.Cl [Urapidil HCl] : 98.8

###

Tested on: UCD52 (cells of a triple-negative basal-like breast cancer xenograft)
Experiment Notes: cell viability of combination (% of vehicle); higher = less cytotoxic
Condition Summary: 1 µM; 72 h; partner dose: 10 nM
Each record's class is read off its cell viability of combination using these ranges: low value (below 50), medium value (50 to below 70), high value (70 or more)

# Molecule, Tgt, Qualitative Label
data = [
    ("Nc1c(CC(=O)[O-])cccc1C(=O)c1ccccc1.O.[Na+] [Amfenac Sodium Monohydrate] + CN(C)C/C=C/C(=O)Nc1cc2c(Nc3ccc(F)c(Cl)c3)ncnc2cc1O[C@H]1CCOC1", "UCD52", "high value"),
    ("CC(NCCCc1cccc(C(F)(F)F)c1)c1cccc2ccccc12.Cl (stereo unspecified) [Cinacalcet HCl] + CN(C)C/C=C/C(=O)Nc1cc2c(Nc3ccc(F)c(Cl)c3)ncnc2cc1O[C@H]1CCOC1", "UCD52", "medium value"),
    ("CN1CCC(COc2cnc(-c3cccc(Cn4nc(-c5cccc(C#N)c5)ccc4=O)c3)nc2)CC1 + CN(C)C/C=C/C(=O)Nc1cc2c(Nc3ccc(F)c(Cl)c3)ncnc2cc1O[C@H]1CCOC1", "UCD52", "medium value"),
]

Query string: Kindly identify the class of C=CC(=O)N1CCC(Oc2cc3c(Nc4ccc(Cl)c(Cl)c4F)ncnc3cc2OC)CC1 [Poziotinib] + CN(C)C/C=C/C(=O)Nc1cc2c(Nc3ccc(F)c(Cl)c3)ncnc2cc1O[C@H]1CCOC1 .
Result string: low value

###

Here the recorded cell viability is given for each entry.
System: UCD52
Experiment Notes: cell viability (% of vehicle); higher = less cytotoxic
Condition Summary: 10 µM; 72 h
Enter the number alone.

# Compound, cell viability
records = [
    ("CC(=O)O[C@H]1Cc2ccccc2N(C(N)=O)c2ccccc21 [Eslicarbazepine acetate]", 95.5),
    ("C.CCN1CC(CCN2CCOCC2)C(c2ccccc2)(c2ccccc2)C1=O.O (stereo unspecified) [Doxapram HCl]", 73.6),
    ("Cc1c(N(C)C)c(=O)n(-c2ccccc2)n1C", 97.8),
    ("CN1CCC(=C2c3ccccc3C=Cc3ccccc32)CC1.Cl [Cyproheptadine hydrochloride]", 79.8),
    ("CC[C@H](C)[C@H]1O[C@]2(CC[C@@H]1C)C[C@@H]1C[C@@H](C/C=C(\\C)[C@@H](O[C@H]3C[C@H](OC)[C@@H](O[C@H]4C[C@H](OC)[C@@H](O)[C@H](C)O4)[C@H](C)O3)[C@@H](C)/C=C/C=C3\\CO[C@@H]4[C@H](O)C(C)=C[C@@H](C(=O)O1)[C@]34O)O2", 76.3),
]

Shifting focus to the compound that follows.
Data point: `COC(=O)C1=C(C)NC(C)=C(C(=O)OC)C1c1ccccc1[N+](=O)[O-]` ; cell viability = 92.2

###

Measured cell viability values are reported for all entries that follow.
Tested on: HCI13 (cells of an ER-positive luminal breast cancer xenograft)
Experiment Notes: cell viability (% of vehicle); higher = less cytotoxic
Condition Summary: 10 µM; 72 h
Number, no unit, nothing else.

Field: example entries. Status: answers known.
# Compound, cell viability
records = [
    ("NS(=O)(=O)NCC/N=C1\\NON\\C1=C(\\N=O)Nc1ccc(F)c(Br)c1", 66.5),
    ("Cc1ccc(-n2[nH]c(C)c(NN=C3C=CC=C(c4cccc(C(=O)O)c4)C3=O)c2=O)cc1C [Eltrombopag]", 54.9),
]

GET /value?item= CC(C)(C)N.CCCC(NC(C)C(=O)N1C(C(=O)O)CC2CCCCC21)C(=O)OCC (centres undefined) [Perindopril Erbumine] &field=cell viability returns 129

For reference, reported cell viability for CC(=O)SCC(Cc1ccccc1)C(=O)NCC(=O)OCc1ccccc1 (centres undefined) [Racecadotril] stands at 114

###

Parameter: cell viability. Scope: all listed entries.
System: HCI09 (cells of a triple-negative luminal androgen receptor type breast cancer xenograft)
Experiment Notes: cell viability (% of vehicle); higher = less cytotoxic
Condition Summary: 10 µM; 72 h
Give only the figure.

Field: example entries. Status: answers known.
# Compound, Tgt, Quantitative Result
measured = [
    ("CC(C)(C)NCC(O)COc1nsnc1N1CCOCC1.O=C(O)C=CC(=O)O (centres undefined) [Timolol Maleate]", "HCI09", 106),
    ("CC(=O)OC1(C(C)=O)CCC2C3CCC4=CC(=O)CCC4=C3C(c3ccc(N(C)C)cc3)CC21C (centres undefined) [Ulipristal acetate]", "HCI09", 82.5),
]

Value of cell viability reported for the compound O=C(O)C1=CC(=NNc2ccc(S(=O)(=O)Nc3ccccn3)cc2)C=CC1=O [Sulfasalazine] is 119

The measured cell viability associated with Br.COc1ccc2c3c1O[C@H]1C[C@@H](O)C=C[C@@]31CCN(C)C2 [Galanthamine HBr] reads 97

###

Test system: HCI16 (cells of a triple-negative basal-like breast cancer xenograft)
Experiment Notes: cell viability (% of vehicle); higher = less cytotoxic
Condition Summary: 10 µM; 72 h
Each entry below carries its recorded cell viability.
Enter a number only.

Guide cases for cell viability, answers given:
# Molecule, Measure, Quantitative Result
data = [
    ("Cc1onc(-c2ccccc2)c1-c1ccc(S(N)(=O)=O)cc1", "cell viability", 99.8),
    ("CO/N=C(\\C(=O)N[C@@H]1C(=O)N2C(C(=O)O)=C(CSc3nc(=O)c(O)nn3C)CS[C@H]12)c1csc(N)n1 [Ceftriaxone Sodium Trihydrate]", "cell viability", 125),
    ("CN1C2CCCC1CC(NC(=O)c1nn(C)c3ccccc13)C2 (centres undefined)", "cell viability", 89.3),
    ("COc1cc(CNC(=O)CCCCC=CC(C)C)ccc1O", "cell viability", 82.4),
    ("c1ccc(-c2ccc(C(c3ccccc3)n3ccnc3)cc2)cc1 (centres undefined)", "cell viability", 108),
    ("Cc1c(-c2cnccn2)ssc1=S", "cell viability", 104),
    ("O=C1NC([O-])=NC1(c1ccccc1)c1ccccc1.[Na+] [Phenytoin sodium]", "cell viability", 114),
    ("S=c1nc[nH]c2nc[nH]c12", "cell viability", 74.9),
]

Lab note: next molecule to report on.
cell viability measured on O=C([O-])P(=O)([O-])[O-].[Na+].[Na+].[Na+] [Foscarnet Sodium] = 133
